System: A549
TEST DESCRIPTION: NCI tumour cell line growth inhibition, 48 h
Calls of active or inactive are those of the source. Cut-off read from the data, not from the text of the source: active = GI50 up to about 1.1 µM and inactive = higher.
Lab note: assign the record to one of y for active, n for inactive

Illustrative cases are given below, each with its answer.
C=C1CC(COc2cc(=O)oc3ccccc23)(c2ccccc2)OC1=O (centres undefined) :: n
CSC1SCC2C(=O)N(C)C3(CC3C)C(=O)OCC(NC(=O)c3nc4ccccc4cc3O)C(=O)NC(C)C(=O)N(C)C1C(=O)N(C)C1(CC1C)C(=O)OCC(NC(=O)c1nc3ccccc3cc1O)C(=O)NC(C)C(=O)N2C (centres undefined) :: y

What is the recorded call for this molecule in the test? COc1ccc(NC(=O)/C(Cc2cc(=O)oc3cc(O)ccc23)=N\NC(C)(C)C)c(OC)c1
n

What is the recorded call for this molecule in the test? S=C1NN=C2C(=C3CCCC4C5CCCCC5N2C34)N1 (centres undefined)
n

What is the recorded call for this molecule in the test? Cc1cc2ncn(-c3nc4ccccc4nc3C(C#N)S(C)(=O)=O)c2cc1C (centres undefined)
n

What is the recorded call for this molecule in the test? O=[N+]([O-])c1cccc(CSc2nc(O)c3nc[nH]c3n2)c1
n

What is the recorded call for this molecule in the test? CC(=O)OCC1OC(n2c(S)c(C#N)c(-c3ccccc3)c(C#N)c2=O)C(OC(C)=O)C(OC(C)=O)C1OC(C)=O (centres undefined)
n

What is the recorded call for this molecule in the test? C[C@]12CC[C@@H]3c4cc(C=O)c(OCc5ccccc5)cc4CC[C@H]3[C@@H]1CCC2OCc1ccccc1 (some centres undefined)
n

What is the recorded call for this molecule in the test? CCN(C1=CC(=O)NC2CCCCN12)c1ccccc1 (centres undefined)
n

* * *

System: RXF 393
TEST DESCRIPTION: NCI tumour cell line growth inhibition, 48 h
Active and inactive are the calls of the source. Cut-off read from the data, not from the text of the source: active = GI50 up to about 1.1 µM and inactive = higher.
Lab note: assign the record to one of active, inactive

Illustrative cases are given below, each with its answer.
Nc1ccccc1-c1noc(=O)[nH]1 :: inactive
CCC(C(=O)O)c1ccc(OCc2ccccc2)cc1 (stereo unspecified) :: inactive

What is the recorded call for this compound in the test? COC(=O)c1sc(=S)sc1SCc1cccc(CSc2sc(=S)sc2C(=O)OC)c1
inactive

What is the recorded call for this compound in the test? COC(=O)C(C)Sc1nc2cc(Cl)ccc2s1 (stereo unspecified)
inactive

What is the recorded call for this compound in the test? O=CNc1cccc2c3c([nH]c12)CCCCCC3
inactive

What is the recorded call for this compound in the test? Sc1nn2c(COc3ccc(Cl)cc3)nnc2s1
inactive

* * *

Tested on: HCT-116
TEST DESCRIPTION: NCI tumour cell line growth inhibition, 48 h
The source made the active and inactive calls. Cut-off read from the data, not from the text of the source: active = GI50 up to about 1.1 µM and inactive = higher.
QUANTITY KIND: GI50

// known answers, use as guide
CCOC(=O)N[C@H]1CCc2cc(O)c(OC)c(OC)c2-c2ccc(SC)c(=O)cc21 :: < 0.0138 µM (active)
N#CSC/C(Cl)=C/Cl.N#CSC/C(Cl)=C\Cl :: > 100 µM (inactive)
COC(=O)C1=C(C)NC(C)=C(C(=O)OC)C1c1cccc(N=O)c1 :: 11 µM (inactive)
Nc1nc(Cl)cc(NCC2(CO)CC(=O)C2)n1 :: > 100 µM (inactive)
Cc1ccc(NC(Nc2ccc(C)cc2C)=C(/C=C(\Cl)[N+](=O)[O-])[N+](=O)[O-])c(C)c1 :: 1.7 µM (inactive)
N#Cc1ccc2[nH]c3c(c2c1)CC(=O)Nc1ccccc1-3 :: 21.5 µM (inactive)

Please give GI50 for each item listed below.
1. Cc1cn([C@@H]2C[C@H](CO)[C@@H]2O)c(=O)[nH]c1=O
2. CN(C)CCC(=O)N1C/C(=C\c2ccc(Cl)c(Cl)c2)C(=O)/C(=C/c2ccc(Cl)c(Cl)c2)C1
3. C[C@H](CCC(=O)O)[C@H]1CC[C@H]2[C@@H]3C(=O)C[C@@H]4C[C@H](O)CC[C@]4(C)[C@H]3C[C@H](O)[C@]12C

1. > 100 µM (inactive)
2. 0.119 µM (active)
3. > 100 µM (inactive)

* * *

Tested on: MDA-N
TEST DESCRIPTION: NCI tumour cell line growth inhibition, 48 h
The source made the active and inactive calls. Cut-off read from the data, not from the text of the source: active = GI50 up to about 1.1 µM and inactive = higher.
QUANTITY KIND: GI50

// known answers, use as guide
CC(C)c1cc(C(C)C)c(S(=O)(=O)N/N=C2\CC3CCC2(C)C3(C)C)c(C(C)C)c1 (stereo not given) :: 15.1 µM (inactive)
O=C1/C(=C\c2ccccc2)CN(C(=O)CCN2CCCCC2)C/C1=C/c1ccccc1 :: 1.19 µM (inactive)
S=c1c2cn[nH]c2nc2scc(-c3ccc(Cl)cc3)n12 :: 4.36 µM (inactive)
COc1ccc2c(c1)/c(=C/C#N)c1c3ccccc3[n+](C)n21 :: 5.43 µM (inactive)
CC(C)(C)OC(=O)c1ccc(NCC2=C(Br)C(=O)C=CC2=O)cc1 :: 20 µM (inactive)

Please give GI50 for each item listed below.
1. COC(=O)c1ccc(NCC2=CC(=O)c3ccccc3C2=O)cc1
2. CCOC(=O)c1cc2c([nH]1)C(=O)CC1=C2CCN1Cc1ccccc1

1. 9.23 µM (inactive)
2. 13.5 µM (inactive)

Please give GI50 for each item listed below.
1. COC(=O)C1(N2CCOCC2)CCC([C@@H](c2ccccc2)C(C)[N+](=O)[O-])C1 (stereo not given in full)
2. CCOP(=O)(OCC)/C(C#N)=C/c1cnc(-c2ccccc2)[nH]1

> 100 µM (inactive)
> 100 µM (inactive)

Reported GI50 for CN(C)c1ccc(/C=C2\N=C(N/N=C/c3ccccc3)NC2=O)cc1 was 33.4 µM (inactive)

* * *

Test system: NCI/ADR-RES
TEST DESCRIPTION: NCI tumour cell line growth inhibition, 48 h
Active and inactive are the calls of the source. No stated cut-off is given here; in the data, active = GI50 up to about 1.1 µM and inactive = higher.
I'd be grateful if you could share measured GI50 for these entries.

// known answers, use as guide
Cc1c(C)c2c(c(N)c1C#N)C(=O)N(Nc1ccccc1)C2=O :: 52.4 µM (inactive)
CCN(C(=O)N[C@H](C(=O)N[C@@H](CSC)C(=O)N[C@@H](C)C(=O)OC)C(C)C)c1ccccc1 :: > 100 µM (inactive)
CC1(C)CC[C@]2(C(=O)O)[C@H](O)C[C@]3(C)C(=CC[C@@H]4[C@@]5(C)CC[C@H](OC6OC(C(=O)O)C(O)C(O)C6O)C(C)(C)[C@@H]5CC[C@]43C)[C@@H]2C1 (stereo not given in full) :: > 100 µM (inactive)
COc1ccc(-c2nc3c(C(=O)NCCN(C)C)cccc3c3ccccc23)cc1 :: 7.31 µM (inactive)
O=C(CC(C(=O)c1ccc(F)cc1)c1ccsc1)c1cccs1 (stereo not given) :: 96.4 µM (inactive)
NCCSC(c1ccccc1)c1ccccc1 :: 31.3 µM (inactive)
N#Cc1cc(-c2nc3c(F)cccc3s2)ccc1N :: > 100 µM (inactive)
NCCN1CC2CCC(CC2)C1 :: > 10 µM (inactive)

Please give GI50 for each item listed below.
1. Sc1nn2c(COc3ccc(Cl)cc3)nnc2s1
2. O=c1[nH][nH]c(=O)n1CCCCCCn1c(=O)[nH][nH]c1=O

1: > 100 µM (inactive); 2: > 100 µM (inactive)

Please give GI50 for each item listed below.
1. O=C1NC(=S)N/C1=C\c1ccc(Sc2ccccc2C(=O)O)s1
2. Cc1ccc(NC(Nc2ccc(C)cc2C)=C(/C=C(\Cl)[N+](=O)[O-])[N+](=O)[O-])c(C)c1
3. O=C(/C=C/c1ccc(O)c(O)c1)OCC(OC(=O)/C=C/c1ccc(O)c(O)c1)C(=O)O (stereo not given)
4. O=C(Nc1ccc2[nH]c(C(=O)N3CC(CCl)c4c3cc([N+](=O)[O-])c3ccccc43)cc2c1)c1cc2ccccc2o1 (stereo not given)
5. Cc1cc(S(=O)(=O)Nc2nnc3cnc4ccccc4n23)c(S)cc1Cl
6. COc1cc(C)c(C2NC(=O)c3ccccc3N2)cc1C (stereo not given)
7. Cc1ccc2c(c1)[nH]c(=S)n2/C=C1\C(=O)Oc2ccccc2C1=O
8. Cc1cc(C)nc(NS(=O)(=O)c2ccc(Nc3c4ccccc4nc4ccc(C(=O)Nc5ccc(S(=O)(=O)N=C(N)N)cc5)cc34)cc2)n1

1. > 100 µM (inactive)
2. 17.1 µM (inactive)
3. > 100 µM (inactive)
4. > 50.6 µM (inactive)
5. > 100 µM (inactive)
6. 0.149 µM (active)
7. 56.2 µM (inactive)
8. > 100 µM (inactive)

Please give GI50 for each item listed below.
1. CC12CCCCC1=C(F)C(F)(F)S2 (stereo not given)
2. O=[N+]([O-])c1ccc2c3ccccc3[s+]([O-])c2c1 (stereo not given)

40.1 µM (inactive)
> 100 µM (inactive)

* * *

Tested on: M14
TEST DESCRIPTION: NCI tumour cell line growth inhibition, 48 h
The source made the active and inactive calls. Cut-off read from the data, not from the text of the source: active = GI50 up to about 1.1 µM and inactive = higher.
Lab note: assign the record to one of active, inactive

CN(C)c1ccc(/C=C/c2ccnc3ccccc23)cc1 :: inactive
CN(C)CCOc1ccc2[nH]c(C(=O)N3CC(CCl)c4ccc(N)cc43)cc2c1 (configuration not stated) :: active
COC(=O)C1(N2CCOCC2)CCC([C@@H](c2ccccc2)C(C)[N+](=O)[O-])C1 (some centres not stated) :: inactive
CCN(CC)CCNC(=O)c1ccc([N+](=O)[O-])cc1OC :: inactive

What is the recorded call for this compound in the test? CC1CC[C@@]2(OC1)OC1CC3C4CCC5C[C@@H](OC6OC(CO)C(OC7OC(CO)C(O)C(OC8OC(CO)C(O)C(OC9OC(CO)C(O)C(O)C9O)C8O)C7OC7OC(CO)C(O)C(O)C7O)C(O)C6O)[C@H](O)C[C@]5(C)C4CC[C@]3(C)C1[C@@H]2C (some centres not stated)
inactive

What is the recorded call for this compound in the test? CCOC(=O)CC1c2ccc(O)cc2OC(=O)C1c1ccc([N+](=O)[O-])cc1 (configuration not stated)
inactive

What is the recorded call for this compound in the test? O=C(Nc1ccc2[nH]c(C(=O)N3CC(CCl)c4c3cc([N+](=O)[O-])c3ccccc43)cc2c1)c1cc2ccccc2o1 (configuration not stated)
inactive

What is the recorded call for this compound in the test? C/C(=N\NS(=O)(=O)c1ccc(C)cc1)c1ccccn1
inactive

What is the recorded call for this compound in the test? CCOC(=O)N[C@H]1CCc2cc(O)c(OC)c(OC)c2-c2ccc(SC)c(=O)cc21
active

Reference source: ChEMBL document CHEMBL1201862
